The values you see were collected from PubChem BioAssay (NCI).

test: NCI Yeast Anticancer Drug Screen. Data for the bub3 strain (AID 167); conditions: S. cerevisiae bub3 mutant strain, at 50.0 µM, hits give high values
This is part of a sample that, as a whole, favours compounds with a hit. Of some 79,000 tested, about 15% had one in any assay.
ATTRIBUTE MEASURED: growth inhibition (%)

                                    compound  scale_unit  value_reported
 0                    C=CCOc1ccccc1C(OCC)OCC           %            30.2
 1     O=C(O)/C(Cl)=C(/Cl)C(=O)Nc1cccc(Cl)c1           %            89.9
 2  CN(C)c1ccc(C=Nc2ccc(OCCCCCCCCCCC(=O)O)cc2)cc1           %            84.5
 3             CC(C)(N)COB(c1ccccc1)c1ccccc1           %            99.8
 4  CS(C)=O.[Cl-].[Cl-].[NH-]CC(O)CN(Cc1ccccc1)CC(O)CN.[Pt] (configuration not stated)           %            -5.7
 5  CC(NNC(=S)NCc1ccccc1)c1cc2ccccc2cn1 (configuration not stated)           %            83.7
 6  CC(=O)c1ccc2c(c1)CC1(C2)Cc2cc3c(c(C(=O)O)c2C1)CCC3 (configuration not stated)           %            85.8
 7        CCC/C(=N\O)S(=O)(=O)c1ccc(NN=O)nc1           %            -4.4
 8                   Clc1ccccc1/C=C/c1ccccn1           %            67.5
 9          CCCCCCCCN(CCCCCCCC)Cc1ccc(Br)cc1           %            99.2
10             Cc1ccc(C(=O)/C=C/c2ccccc2)cc1           %             9.3
11  CCOC(=O)C(C)(C)Oc1ccc2c(=O)cc(-c3ccccc3)oc2c1           %            92.5
